- test target: Histone deacetylase 3 (Homo sapiens, UniProt O15379)
- Sequence (O15379 whole entry): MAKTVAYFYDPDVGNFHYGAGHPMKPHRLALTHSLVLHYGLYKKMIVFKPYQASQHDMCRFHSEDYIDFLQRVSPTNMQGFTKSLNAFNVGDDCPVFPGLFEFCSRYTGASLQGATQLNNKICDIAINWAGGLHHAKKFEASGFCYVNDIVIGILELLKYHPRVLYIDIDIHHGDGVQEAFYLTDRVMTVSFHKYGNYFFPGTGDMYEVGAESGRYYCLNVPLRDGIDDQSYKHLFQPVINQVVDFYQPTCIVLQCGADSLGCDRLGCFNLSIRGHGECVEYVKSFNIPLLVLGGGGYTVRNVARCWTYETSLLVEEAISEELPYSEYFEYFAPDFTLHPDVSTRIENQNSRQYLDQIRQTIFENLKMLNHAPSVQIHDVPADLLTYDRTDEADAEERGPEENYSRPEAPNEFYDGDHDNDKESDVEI
- experiment notes: Inhibition of human KDAC3 at 30 uM using FITC-labeled p53 acetylated peptide as substrate after 60 mins by fluorescence assay relative to control
assay readout: inhibition (%)
Write the value in % as a bare number.

Solved entries (count: 8):
{"columns": ["given smiles", "output unit", "inhibition"],
 "data": [
  ["O=C(CCCCN1C(=O)[C@H](Cc2cncn2C(c2ccccc2)(c2ccccc2)c2ccccc2)N=C(c2ccccc2)c2ccccc21)NO", "%", 93.4],
  ["CC(C)[C@@H]1N=C(c2ccccc2)c2ccccc2N(CCCCC(=O)NO)C1=O", "%", 97],
  ["O=C1CN=C(c2ccccc2)c2ccccc2N1", "%", 3.45],
  ["O=C(CCCCN1C(=O)CN=C(c2ccccc2)c2ccccc21)NO", "%", 97.2],
  ["CC(C)(C)OC(=O)CC[C@@H]1N=C(c2ccccc2)c2ccccc2NC1=O", "%", 0],
  ["Cc1c(C)c(S(=O)(=O)NC(=N)NCCC[C@@H]2N=C(c3ccccc3)c3ccccc3NC2=O)c(C)c2c1OC(C)(C)C2", "%", 0.47],
  ["CC(C)(C)OC[C@@H]1N=C(c2ccccc2)c2ccccc2N(CCCCC(=O)NO)C1=O", "%", 94.6],
  ["CC(C)(C)OC(=O)CC[C@@H]1N=C(c2ccccc2)c2ccccc2N(CCCCC(=O)NO)C1=O", "%", 99.9]
]}

What inhibition value was documented for this compound, COC(=O)CCCCN1C(=O)[C@H](CC(=O)OC(C)(C)C)N=C(c2ccccc2)c2ccccc21 ?
0

Recorded inhibition for CC(C)(C)OC(=O)n1c(C[C@@H]2N=C(c3ccccc3)c3ccccc3N(CCCCC(=O)NO)C2=O)cc2ccccc21 , please?
93.1

Would you kindly share the measured inhibition for C[C@@H]1N=C(c2ccccc2)c2ccccc2NC1=O ?
0

Give its inhibition value. Item: CC(C)[C@@H]1N=C(c2ccccc2)c2ccccc2NC1=O
0

State the recorded inhibition for this entry: COC(=O)CCCCN1C(=O)[C@H](Cc2ccc(OC(C)(C)C)cc2)N=C(c2ccccc2)c2ccccc21
0.98

Look at this compound and give its reported inhibition. COC(=O)CCCCN1C(=O)[C@H](CCCNC(=N)NS(=O)(=O)c2c(C)c(C)c3c(c2C)CC(C)(C)O3)N=C(c2ccccc2)c2ccccc21
3.33

Which inhibition is reported for this compound? O=C(CCCCN1C(=O)[C@H](Cc2cc3ccccc3[nH]2)N=C(c2ccccc2)c2ccccc21)NO
98.9

* * *

Attribute: inhibition
- test target: UniProt Q9UBN7
- assay setup: at 30 µM
- Description: Inhibition of human KDAC6 at 30 uM using FITC-labeled histone H4 acetylated peptide as substrate after 60 mins by fluorescence assay relative to control
// note: answer is a bare numeric in %

Sample records with inhibition:
{"columns": ["given smiles", "output unit", "inhibition"],
 "data": [
  ["COC(=O)CCCCN1C(=O)[C@H]([C@@H](C)OCc2ccccc2)N=C(c2ccccc2)c2ccccc21", "%", 0],
  ["O=C(O)CCCCN1C(=O)CN=C(c2ccccc2)c2ccccc21", "%", 0],
  ["O=C(C[C@@H]1N=C(c2ccccc2)c2ccccc2NC1=O)NO", "%", 0.88],
  ["O=C(O)CCCCN1C(=O)[C@H](Cc2ccccc2)N=C(c2ccccc2)c2ccccc21", "%", 0],
  ["O=C(CCCCN1C(=O)[C@H](Cc2cc3ccccc3[nH]2)N=C(c2ccccc2)c2ccccc21)NO", "%", 93.2]
]}

Fill in the blank: the reported inhibition of CC(C)(C)OC(=O)NCCCC[C@@H]1N=C(c2ccccc2)c2ccccc2NC1=O is ____.
0

Find the recorded inhibition belonging to CC(C)(C)OC(=O)C[C@H]1N=C(c2ccccc2)c2ccccc2NC1=O and report it.
0

Fill in: inhibition of O=C(CC[C@@H]1N=C(c2ccccc2)c2ccccc2NC1=O)NC(c1ccccc1)(c1ccccc1)c1ccccc1 is ___
0

* * *

Collected pIC50 values appear next to each entry.
- test target: Histone deacetylase 1 (Homo sapiens, UniProt Q13547)
- Sequence (Q13547 whole entry): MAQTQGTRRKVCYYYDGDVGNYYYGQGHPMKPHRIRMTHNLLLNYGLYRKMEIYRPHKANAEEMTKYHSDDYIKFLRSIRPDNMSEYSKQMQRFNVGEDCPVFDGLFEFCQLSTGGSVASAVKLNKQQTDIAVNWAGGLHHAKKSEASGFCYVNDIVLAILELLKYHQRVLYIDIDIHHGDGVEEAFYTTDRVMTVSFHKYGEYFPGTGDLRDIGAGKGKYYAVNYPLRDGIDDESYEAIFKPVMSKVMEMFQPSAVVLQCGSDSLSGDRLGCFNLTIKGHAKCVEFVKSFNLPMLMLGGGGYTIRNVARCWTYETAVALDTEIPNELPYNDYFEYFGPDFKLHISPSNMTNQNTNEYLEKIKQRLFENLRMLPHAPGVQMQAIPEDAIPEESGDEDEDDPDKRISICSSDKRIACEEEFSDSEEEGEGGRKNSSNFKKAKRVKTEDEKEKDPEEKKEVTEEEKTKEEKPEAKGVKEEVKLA
Just the number, please; pIC50 means minus log10 of the concentration in mol/L.

{"columns": ["given smiles", "pIC50"],
 "data": [
  ["O=C(CCCCN1C(=O)[C@H](Cc2cc3ccccc3[nH]2)N=C(c2ccccc2)c2ccccc21)NO", 4.77]
]}

Now take the following compound into account.
# get_value(readout= pIC50, system= Histone deacetylase 1 (Homo sapiens, UniProt Q13547)) for O=C(CCCCN1C(=O)[C@H](CC(=O)NO)N=C(c2ccccc2)c2ccccc21)NO
5.00

* * *

- test target: Histone deacetylase 3 (Homo sapiens, UniProt O15379)
- experiment notes: Inhibition of human KDAC3 using FITC-labeled p53 acetylated peptide as substrate after 60 mins by fluorescence assay
assay readout: IC50

Consider the following illustrative entries.
{"columns": ["given smiles", "IC50"],
 "data": [
  ["C[C@H](OCc1ccccc1)[C@@H]1N=C(c2ccccc2)c2ccccc2NC1=O", "> 30 µM"],
  ["O=C(CCCNC(=O)C[C@@H]1N=C(c2ccccc2)c2ccccc2NC1=O)NO", "3.21 µM"],
  ["O=C(O)C[C@H]1N=C(c2ccccc2)c2ccccc2NC1=O", "> 30 µM"]
]}

Fill in: IC50 of CC(C)(C)OC(=O)C[C@@H]1N=C(c2ccccc2)c2ccccc2NC1=O is ___
> 30 µM

Give its IC50 value. Item: CC(C)(C)SC[C@H]1N=C(c2ccccc2)c2ccccc2N(CCCCC(=O)O)C1=O
> 30 µM

* * *

Measured inhibition by item
- test target: Protein deacetylase HDAC6 (Homo sapiens);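 note: enzyme assay on human HDAC6 with a fluorescein-tagged acetylated histone H4 peptide substrate, fluorescence read after 60 min, inhibition expressed versus untreated control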
- Sequence (whole entry): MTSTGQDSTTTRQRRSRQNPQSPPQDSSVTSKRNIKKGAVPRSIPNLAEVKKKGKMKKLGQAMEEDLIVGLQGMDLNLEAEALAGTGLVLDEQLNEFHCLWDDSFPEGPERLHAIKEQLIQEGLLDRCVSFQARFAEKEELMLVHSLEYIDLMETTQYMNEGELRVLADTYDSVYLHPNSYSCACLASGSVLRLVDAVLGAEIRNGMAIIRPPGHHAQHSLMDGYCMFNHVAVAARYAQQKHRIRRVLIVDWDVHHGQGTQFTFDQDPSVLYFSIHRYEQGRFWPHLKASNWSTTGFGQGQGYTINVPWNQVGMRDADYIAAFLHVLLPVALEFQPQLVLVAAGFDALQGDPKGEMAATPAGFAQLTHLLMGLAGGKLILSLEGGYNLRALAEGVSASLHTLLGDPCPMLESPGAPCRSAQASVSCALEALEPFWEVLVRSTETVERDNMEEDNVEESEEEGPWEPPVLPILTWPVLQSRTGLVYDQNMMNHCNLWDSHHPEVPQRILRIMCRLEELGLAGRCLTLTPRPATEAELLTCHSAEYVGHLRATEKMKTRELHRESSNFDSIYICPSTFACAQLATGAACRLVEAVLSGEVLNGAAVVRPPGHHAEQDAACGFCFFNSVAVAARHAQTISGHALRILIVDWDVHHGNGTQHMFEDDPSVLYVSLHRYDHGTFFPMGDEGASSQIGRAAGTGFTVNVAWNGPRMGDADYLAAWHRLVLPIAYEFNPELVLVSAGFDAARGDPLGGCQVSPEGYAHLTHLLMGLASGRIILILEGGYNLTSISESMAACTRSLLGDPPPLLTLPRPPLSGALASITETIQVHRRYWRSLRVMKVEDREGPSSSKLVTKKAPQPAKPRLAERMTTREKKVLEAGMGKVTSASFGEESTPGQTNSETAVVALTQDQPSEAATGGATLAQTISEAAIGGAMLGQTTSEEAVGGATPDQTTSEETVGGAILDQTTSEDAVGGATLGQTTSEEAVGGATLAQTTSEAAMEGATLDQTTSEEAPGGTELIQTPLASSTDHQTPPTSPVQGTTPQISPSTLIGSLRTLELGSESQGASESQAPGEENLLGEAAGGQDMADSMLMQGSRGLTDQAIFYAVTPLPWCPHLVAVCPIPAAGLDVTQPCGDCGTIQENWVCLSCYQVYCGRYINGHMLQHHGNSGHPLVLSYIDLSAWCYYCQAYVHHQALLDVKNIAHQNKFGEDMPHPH
- assay setup: at 30 µM
Record the value in %, omitting the unit from your answer.

The following compounds have reported results that may help.
{"columns": ["given smiles", "assay readout", "reported"],
 "data": [
  ["O=C(CCCCN1C(=O)[C@H](Cc2ccc(O)cc2)N=C(c2ccccc2)c2ccccc21)NO", "inhibition", 78.5],
  ["CSCC[C@@H]1N=C(c2ccccc2)c2ccccc2N(CCCCC(=O)NO)C1=O", "inhibition", 93.1],
  ["O=C1CN=C(c2ccccc2)c2ccccc2N1", "inhibition", 0]
]}

Reported inhibition for CC(C)C[C@@H]1N=C(c2ccccc2)c2ccccc2N(CCCCC(=O)NO)C1=O : what is it?
91.6

Give its inhibition value. Item: COC(=O)CCCCN1C(=O)[C@H](COC(C)(C)C)N=C(c2ccccc2)c2ccccc21
0

Fill in: inhibition of O=C(O)C[C@H]1N=C(c2ccccc2)c2ccccc2NC1=O is ___
0

Reported inhibition, compound NC(=O)C[C@@H]1N=C(c2ccccc2)c2ccccc2N(CCCCC(=O)NO)C1=O : ____
82.2

Entry O=C(O)C[C@@H]1N=C(c2ccccc2)c2ccccc2N(CCCCC(=O)NO)C1=O has what inhibition?
57.8

Form field: reported inhibition of COC(=O)CCCCN1C(=O)CN=C(c2ccccc2)c2ccccc21
0

Field request: inhibition | item: CC(C)(C)OC(=O)C[C@@H]1N=C(c2ccccc2)c2ccccc2NC1=O
0
